All figures here come from a melting point compilation (Tetko et al.; mined from patent text by program, amines drawn as free bases though some values may be those of a salt).

Consider the following compounds and their measured melting point readings.
quantityKind: melting point

COc1cc(C(=O)NNC(=O)c2occ(-c3ccccc3)c2-c2ccccc2)ccc1O ... 216 to 220 °C
CC1(C)CC(=O)Nc2cc3nc(-c4ccc(C#N)cc4)[nH]c3cc21 ... 228 to 233 °C
Cc1noc(NS(=O)(=O)c2ccccc2-c2ccc(-c3ccno3)cc2)c1C ... 85 to 90 °C
CCOC(=O)Cc1cccc(Oc2ccccc2)c1NC(C)=O ... 106 to 107 °C
CC(C)S(=O)(=O)c1ccccc1S(N)(=O)=O ... 150 to 153 °C
Cc1nnn(Cc2cc(-c3ncco3)ccc2-c2ccccc2S(=O)(=O)Nc2onc(C)c2C)n1 ... 168 to 174 °C
CC(C)(C)c1ccc(S(=O)(=O)/C=C/C(N)=O)cc1 ... 151 °C
CNC(=O)Oc1ccc2onc(NCCN3CCOCC3)c2c1 ... 135 to 136 °C
N=C(Cl)c1c(Cc2ccc(Cl)cc2)nc2ccc(I)cc2c1O ... 172 to 174 °C
CC(C)(C)OC(=O)NC(CO)C(=O)c1ccccc1 (stereo unspecified) ... 69 to 71 °C
CCCCCc1scc2c1n(C(=O)OC)c(=O)n2C(=O)OC ... 99 to 102 °C
Cc1cc(Br)cnc1C#N ... 86 to 88 °C
Fc1ccccc1C1=NCc2n[nH]cc2-c2ccc(Cl)cc21 ... 208 to 210 °C
Cn1cccc1C(=O)Nc1cccc(/C=C/C(=O)O)c1 ... 202 to 204 °C
FC(F)c1cccc(C#CCCn2nc3ccccc3n2)n1 ... 102 to 103 °C
CCOC(=O)c1cn(-c2ccc(F)cc2F)c2nc(N3CCC(N)C3)c(F)cc2c1=O (stereo unspecified) ... 200 to 202 °C
O=C(NCCO[N+](=O)[O-])c1csc(-c2cccc([N+](=O)[O-])c2)n1 ... 149 to 152 °C
CC(=O)COc1ccc(Cl)cc1C(=O)O ... 90 to 91 °C
O=C1c2ccccc2C(=O)c2c1ccc(C(=O)O)c2[N+](=O)[O-] ... 284 to 286 °C
O=c1cc(NCCN2CCC(c3noc4cc(F)ccc34)CC2)cn[nH]1 ... 97 to 99 °C
O=C(Nc1ccccc1)N1C(=O)C2(CCCCC2)N(O)C12CCCCC2 ... 125 to 128 °C

====

Recorded melting point values for a group of compounds are listed next.
quantityKind: melting point

O=C(Nc1ccccc1)Nc1cc(Br)nc(Br)c1 ... 237 to 239 °C
CNC(=O)C(=NOC)c1ccccc1COc1ncc(C(=O)O)cc1Cl ... 189 to 195 °C
O=C(O)C(Cc1ccccc1)Oc1ccc(-c2ccc(-c3c(Cc4ccccc4)sc4ccccc34)cc2)cc1Br (configuration not stated) ... 81 to 83 °C
COc1ccccc1CN1CCC(=O)C(C(c2ccccc2)c2ccc(F)cc2)C1 (configuration not stated) ... 115 to 116 °C
CCN(CC)S(=O)(=O)c1cc2c(c(C(=O)O)c1)OCCO2 ... 149 °C
O=C1c2ccccc2C(=O)N1CCn1nnc(C(F)(F)F)n1 ... 98 to 99.5 °C
O=C(OCc1ccccc1)C(C(=O)OCc1ccccc1)n1cccc1C(=O)C(Cl)(Cl)Cl ... 74 to 76 °C
CC(=O)N1c2ccccc2-n2cc(Cc3cccnc3)c(=O)c3cccc1c32 ... 143 to 144 °C
CC(C)C[C@H](NC(=O)OC(C)(C)C)[C@@H]1CCC(=O)O1 ... 75 to 77 °C
CCCCNc1cncc(C#N)c1 ... 73 °C
COc1cc(NC(=O)OC(C)(C)C)c(Cl)c(OC)c1 ... 94.5 to 95.5 °C
O=c1ccc(-c2ccccc2F)n[nH]1 ... 173 to 175 °C
CC(C)NCC(O)COc1ccc2c(=O)cc(-c3ccc(OCc4ccccc4)c(OCc4ccccc4)c3)oc2c1 (configuration not stated) ... 177 to 179 °C
NC(=O)CON=C(c1ccc(Cl)cc1)c1ccc(Cl)cc1 ... 141 to 142 °C
O=C(c1ccccc1C(c1ccc(O)cc1)c1ccc(O)cc1)N1CCCCC1 ... 242 to 244 °C
NC(=O)CCCN(Cc1ccc(Cl)cc1)Cc1ccc(Cl)cc1 ... 66 to 76 °C
Nc1ncnc2c1ncn2OC(CO)COCP(=O)(O)O (configuration not stated) ... 222 to 225 °C
COC(=O)[C@H](Cc1cc(I)c(OCCCBr)c(I)c1)NC(=O)OC(C)(C)C ... 102 to 103 °C
O=C(Nc1ccc(Oc2ncnc3cc4c(cc23)OCCOCCOCCO4)c(F)c1)c1c[nH]cc(-c2ccc(F)cc2)c1=O ... 188 to 190 °C
O=C(CCCCCBr)c1cc2c3c(c1)CCC(=O)N3CCC2 ... 52 to 53 °C
CCCN(CCC)C(=O)COC1Cc2cccc(OCC(O)CNC(C)(C)C)c2CC1OCC(=O)N(CCC)CCC (configuration not stated) ... 124 to 134 °C
N#Cc1ccc2c(c1)ncn2-c1cccc(I)c1 ... 177 to 179 °C
FCCOc1ccc(COCOc2ccc(Cl)cc2)cc1 ... 60.7 to 61.6 °C
COc1cccc2c1NCn1cc(CO)cc1-2 ... 137 to 138 °C
COC(=O)C1=C(C)NC(C)=C(C(=O)n2ccnc2)C1c1cccc2nonc12 (configuration not stated) ... 195 °C
Cc1[nH]cnc1CCCCNC(=N)N ... 152 to 154 °C
CNC1C(O)CC2C3CCc4cc(O)cc(C)c4C3CCC21C (configuration not stated) ... 215 to 231 °C
CN(C)Cc1ccc2c(c1)nnn2Cc1c(Cl)c(Cl)cc2[nH]c(=O)c(=O)[nH]c12 ... 282 °C
CCCCCCNC1=NS(=O)(=O)c2ccc(Cl)cc2N1 ... 244 to 247 °C
CC1(CCCN2CC[C@H](CNC(=O)c3cc(Cl)c(N)c4c3OCC4)[C@H](O)C2)OCCO1 (relative stereo) ... 118 °C
Nc1cccc(CN2CCC(OC(=O)c3ccccc3)CC2)c1 ... 95 to 97 °C
CC1(C)Cc2c(N)ccc(O)c2O1 ... 194 °C
O=C1NC(=O)C2(c3ccc4ccc(Cl)nc4n3)C=CC=CC12 (configuration not stated) ... 268 °C
CC(C)n1c(=O)c2ccccc2n(SC(Cl)(Cl)Cl)c1=O ... 105 to 106 °C
Cc1cc(-c2ccc3c(=O)c(C(=O)O)cn(C4CC4)c3c2C)cnc1CO ... 225 to 226 °C
C=Cc1cnc2c(NC(=O)c3c(Cl)cccc3Cl)cccc2c1CCO ... 133 to 135 °C
CCc1cc2c(cc1CCSCC(N)=O)OCO2 ... 98 to 99 °C
CCCOC(=O)c1ccc(OC(=O)CCCC(=O)Oc2ccc(C(=O)OCCC)cc2)cc1 ... 74 to 75 °C
NCCOCn1cnc2c(N)ncnc21 ... 170 to 171 °C
CCOC(=O)C(=Cc1ccccn1)C(=O)c1ccc(F)cc1 ... 128 to 129 °C
CN(c1ccc(CCNCC(O)COc2ccc(OCc3ccccc3)cc2)cc1)C1SC(=O)NC1=O (configuration not stated) ... 51 to 53 °C
Cc1sc(N)c(C(=O)c2cccs2)c1C ... 117 to 118 °C

====

quantityKind: melting point

CC(C)C(NC(=O)C(C)(N)c1ccc2ccccc2c1)C(=O)Nc1nn(C(=O)OCc2ccccc2)c(=S)s1 (centres undefined) ... 125 to 132 °C
Nc1ccc(C2CCOCC2)cc1 ... 122 °C
CC(=O)c1ccc(C(=O)Nc2ccc(-n3nc(C(F)(F)F)cc3C(F)(F)F)cc2)cc1 ... 203 to 204 °C
CCCc1nn(C)c2c(=O)n(CCNc3ccc(OC(C)(C)C(=O)O)cc3)c(CC)nc12 ... 136 to 138 °C
NS(=O)(=O)c1ccc(N2CCN(CCC3=CCCc4ccccc43)CC2)cc1 ... 222 °C
Nc1ncc(-c2ccc(F)cc2F)nc1C(=O)Nc1cccnc1 ... 232 to 234 °C
CCCC(=O)Nc1cc(Cl)c(O)c(Cl)c1 ... 146 to 147 °C
Cc1nc(N2CCC(Cc3ccc(F)cc3)C2=O)sc1C(=O)NCc1cccnc1 (centres undefined) ... 169 to 170 °C
C=CCOC(=O)c1cc(OCC=C)c(OCC=C)c(S(C)(=O)=O)c1 ... 78 to 80 °C
CC(=O)Nc1ccc(/C=C/C(=O)/C=C/c2ccc(NC(C)=O)cc2)cc1 ... 253 to 255 °C
CC(C)(C)c1ccc(N2C[C@@H](COS(C)(=O)=O)CC2=O)cc1 ... 108 to 109 °C
C[C@H](NC(=O)c1ncc[nH]1)C(=O)NC(C=O)CC(=O)O (some centres undefined) ... 115 °C
CC(=O)OCc1cncc(COc2cc3c(=O)c(Cc4cccnc4)cn4c5ccc(Br)cc5c(c2)c34)c1 ... 83.5 to 84.5 °C
O=C(c1ccccc1)N1CCc2[nH]c3cccc(CCCO)c3c2CC1 ... 144 to 147 °C
CC(=O)N(C(=O)OC(C)(C)C)c1ccc(-c2nc3n(Cc4c(F)cccc4F)cc(-c4ccccc4)c(=O)n3c2C)cc1 ... 220 to 222 °C
Cn1nc(-c2cc(C=O)c(Cl)cc2F)c(Cl)c1C(F)(F)F ... 70 to 72 °C
CC(C)CC(=O)Oc1n[nH]c(=O)c2nc3cc(Cl)ccc3c(O)c12 ... > 400 °C
CN1CCN(CCCNc2ncc3c(n2)-c2ccccc2C(c2ccc(N)cc2)C3)CC1 (centres undefined) ... 75 to 77 °C
c1ccc(CCOc2c3c(nc4ccccc24)CCN(Cc2ccccc2)CC3)cc1 ... < 20 °C
